# assayed_system: JAK2 (Homo sapiens (Human), UniProt O60674)
# Sequence (O60674 849-1124): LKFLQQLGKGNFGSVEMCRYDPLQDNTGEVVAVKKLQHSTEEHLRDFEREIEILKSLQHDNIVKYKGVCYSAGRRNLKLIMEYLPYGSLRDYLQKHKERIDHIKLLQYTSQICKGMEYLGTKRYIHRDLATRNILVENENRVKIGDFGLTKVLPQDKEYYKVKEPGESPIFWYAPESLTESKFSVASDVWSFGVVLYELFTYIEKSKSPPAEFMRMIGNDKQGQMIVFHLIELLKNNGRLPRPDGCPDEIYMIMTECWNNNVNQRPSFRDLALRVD
# assay_explanation: Jak biochemical HTRF assay, JAK2
# run_conditions: JAK2 IC50 (nM), recombinant GST-tagged catalytic domain, [ATP] […]
assay_metric: log10 of IC50 (log10 of the value in nM)
Log scale reminder: IC50 in nM, then log10 taken.

INPUT: What reported log10 of IC50 corresponds to N#CC[C@@H](C1CCN(C(=O)OCC2CC2)CC1)n1cc(C(N)=O)c(Nc2ccc(F)cc2)n1 [Example 11-10] on JAK2 (Homo sapiens (Human), UniProt O60674)?
OUTPUT: 3.06

INPUT: What about this molecule? N#CCC(C1CC1)n1cc(C(N)=O)c(Nc2cccc(C(F)(F)F)c2)n1 (centres unmarked) [Example 4-4]
OUTPUT: 2.60

INPUT: What would you report for CC(C)(C)OC(=O)N1Cc2cc(Nc3nn(C(CC#N)C4CC4)cc3C(N)=O)ccc2C1=O (centres unmarked) [Example 4-2] ?
OUTPUT: 1.54

INPUT: Record: Cc1c(Cl)ncnc1N1CCC([C@H](CC#N)n2cc(C(N)=O)c(Nc3ccc(F)cc3)n2)CC1 [Example 13]
OUTPUT: 3.18

INPUT: Record: N#CC[C@@H](C1CCN(C(=O)OC2CCC2)CC1)n1cc(C(N)=O)c(Nc2ccc(F)cc2)n1 [Example 11-5]
OUTPUT: 3.07

INPUT: Another molecule to check: COc1cc(Nc2nn(C(CC#N)C3CC3)cc2C(N)=O)ccn1 (centres unmarked) [Example 4-12]
OUTPUT: 1.82

INPUT: Do the same for N#CCc1cccc(Nc2nn(C(CC#N)C3CC3)cc2C(N)=O)c1 (centres unmarked) [Example 4-9] please
OUTPUT: 1.43

INPUT: Item: N#CCCc1cccc(Nc2nn(C(CC#N)C3CC3)cc2C(N)=O)c1 (centres unmarked) [Example 4-7]
OUTPUT: 1.86

* * *

For each record, write down the corresponding IC50.
# assayed_system: JAK1 (Homo sapiens (Human), UniProt P23458)
# Sequence (P23458 875-1153): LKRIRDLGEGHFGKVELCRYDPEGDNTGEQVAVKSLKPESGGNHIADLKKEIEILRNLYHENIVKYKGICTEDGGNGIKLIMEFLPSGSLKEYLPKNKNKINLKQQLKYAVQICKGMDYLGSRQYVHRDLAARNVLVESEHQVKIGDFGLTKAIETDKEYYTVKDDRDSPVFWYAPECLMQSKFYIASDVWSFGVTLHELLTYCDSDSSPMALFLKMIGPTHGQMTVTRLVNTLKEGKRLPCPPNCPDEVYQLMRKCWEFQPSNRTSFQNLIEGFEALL
# assay_explanation: Jak biochemical HTRF assay, JAK1
# run_conditions: JAK1 IC50 (nM), recombinant GST-tagged catalytic domain, [ATP] 31.8 μM
Answer with a number only, understood to be in nM.

INPUT: Requested read-out: IC50. Entry: N#CC[C@@H](C1CC1)n1cc(C(N)=O)c(Nc2ccnc(F)c2)n1 (single isomer, unassigned)
OUTPUT: 16

INPUT: Can you check N#CC[C@@H](C1CCN(C(=O)OC2CCCC2)CC1)n1cc(C(N)=O)c(Nc2ccc(F)cc2)n1 next?
OUTPUT: 69

INPUT: Next up: N#CC[C@@H](C1CCN(C(=O)OC2CCOCC2)CC1)n1cc(C(N)=O)c(Nc2ccc(F)cc2)n1
OUTPUT: 220

INPUT: Do the same for CC(=O)Nc1ccc(Nc2nn(C(CC#N)C3CC3)cc2C(N)=O)cc1 (stereo not shown) please
OUTPUT: 8

* * *

# assayed_system: UniProtKB O60674
# assay_explanation: Jak biochemical HTRF assay, JAK2
# run_conditions: JAK2 IC50 (nM), recombinant GST-tagged catalytic domain, [ATP] […]
Kindly state log10(IC50) for each of the entries shown.
Please note: log10 values; quantity IC50; unit nM.

INPUT: I have this compound here, N#CCC(C1CCCC1)n1cc(C(N)=O)c(Nc2ccc(C(=O)N3CCS(=O)(=O)CC3)cc2)n1 (stereo not drawn) , and I need its recorded log10(IC50).
OUTPUT: 1.49

INPUT: Then N#CC[C@@H](C1CCN(C(=O)OC2COC2)CC1)n1cc(C(N)=O)c(Nc2ccc(F)cc2)n1 ?
OUTPUT: 2.94

INPUT: Subsequent entry: CS(=O)(=O)c1ccc(Nc2nn(C(CC#N)C3CC3)cc2C(N)=O)cc1 (stereo not drawn)
OUTPUT: 1.45

INPUT: Next entry: N#CCC(C1CCCC1)n1cc(C(N)=O)c(Nc2ccccc2)n1 (single isomer, unassigned) [Example 16-3]
OUTPUT: 2.87

INPUT: Consider next the compound N#CCC(C1CC1)n1cc(C(N)=O)c(Nc2ccc(C(F)(F)F)cc2)n1 (stereo not drawn) in the same way.
OUTPUT: 2.04

INPUT: Request: N#CC[C@@H](C1CCN(C(=O)OCC2CCOC2)CC1)n1cc(C(N)=O)c(Nc2ccc(F)cc2)n1 (stereo partly drawn)
OUTPUT: 3.18

INPUT: Proceed to CC(C)(C)OC(=O)N1CCC(C(CC#N)n2cc(C(N)=O)c(Nc3ccc(F)cc3)n2)CC1 (single isomer, unassigned) [Example 14-3]
OUTPUT: 2.96

INPUT: Try this compound too: N#CC[C@@H](C1CCN(C(=O)OCCN2CCOCC2)CC1)n1cc(C(N)=O)c(Nc2ccc(F)cc2)n1
OUTPUT: 3.18

INPUT: Please give the result for COCC(C)OC(=O)N1CCC([C@H](CC#N)n2cc(C(N)=O)c(Nc3ccc(F)cc3)n2)CC1 (stereo partly drawn) too.
OUTPUT: 3.01

INPUT: Cool, now N#CCc1ccc(Nc2nn(C(CC#N)C3CC3)cc2C(N)=O)cc1 (stereo not drawn)
OUTPUT: 1.38

INPUT: Same again, this time with N#CCCn1cc(C(N)=O)c(Nc2ccccc2)n1
OUTPUT: 3.08

INPUT: Can you check CC(C)(C)OC(=O)N1CCC(F)(C(CC#N)n2cc(C(N)=O)c(Nc3ccccc3)n2)CC1 (stereo not drawn) next?
OUTPUT: 3.18

INPUT: What about this compound? N#CCC(C1CC1)n1cc(C(N)=O)c(Nc2ccc(S(=O)(=O)C(F)(F)F)cc2)n1 (stereo not drawn)
OUTPUT: 1.88

INPUT: And then N#CCC(C1CC1)n1cc(C(N)=O)c(Nc2cccc(C#N)c2)n1 (stereo not drawn) , what is it?
OUTPUT: 1.81

INPUT: Query CCC(CC#N)n1cc(C(N)=O)c(Nc2ccccc2)n1 (stereo not drawn) next
OUTPUT: 2.74

INPUT: Moving on to CC(OC(=O)N1CCC([C@H](CC#N)n2cc(C(N)=O)c(Nc3ccc(F)cc3)n2)CC1)C(F)(F)F (stereo partly drawn)
OUTPUT: 3.02

INPUT: Let us now turn to CC(CC#N)n1cc(C(N)=O)c(Nc2ccc(C(=O)N3CCS(=O)(=O)CC3)cc2)n1 (stereo not drawn)
OUTPUT: 1.65

INPUT: Try the compound N#CCC(C1CC1)n1cc(C(N)=O)c(Nc2ccc(-c3cnco3)cc2)n1 (stereo not drawn)
OUTPUT: 2.42

INPUT: Same read-out for N#CCC(C1CC1)n1cc(C(N)=O)c(Nc2ccc3c(c2)CNC3=O)n1 (stereo not drawn) ?
OUTPUT: 1.58

INPUT: For N#CCC(C1CC1)n1cc(C(N)=O)c(Nc2ccccc2F)n1 (stereo not drawn) then?
OUTPUT: 3.17

INPUT: Another compound to look at: Cc1nc(-c2ccc(Nc3nn(C(CC#N)C4CC4)cc3C(N)=O)cc2)no1 (stereo not drawn)
OUTPUT: 2.44

INPUT: Now the same for N#CCC(C1CC1)n1cc(C(N)=O)c(Nc2ccc(S(N)(=O)=O)cc2)n1 (stereo not drawn)
OUTPUT: 1.00

INPUT: Again, but for CN1C(=O)c2ccc(Nc3nn(C(CC#N)C4CC4)cc3C(N)=O)cc2C1(C)C (stereo not drawn)
OUTPUT: 2.35

INPUT: Also, N#CCC(C1CCC1)n1cc(C(N)=O)c(Nc2ccccc2)n1 (stereo not drawn) please.
OUTPUT: 2.43

INPUT: Subsequent entry: N#CCC(C1CC1)n1cc(C(N)=O)c(Nc2cccnc2)n1 (stereo not drawn)
OUTPUT: 1.88

INPUT: Moving on to the next compound: COC(=O)N1CCC(C(CC#N)n2cc(C(N)=O)c(Nc3ccc(F)cc3)n2)CC1 (stereo not drawn)
OUTPUT: 2.95

INPUT: Ok, now C[S+]([O-])c1ccc(Nc2nn(C(CC#N)C3CC3)cc2C(N)=O)cc1 (stereo not drawn)
OUTPUT: 1.11

INPUT: How about this compound: N#CCC(C1CCOC1)n1cc(C(N)=O)c(Nc2ccccc2)n1 (stereo not drawn)
OUTPUT: 3.15

INPUT: Same lookup for Cc1noc(-c2ccc(Nc3nn(C(CC#N)C4CC4)cc3C(N)=O)cc2)n1 (stereo not drawn) , please.
OUTPUT: 1.59

INPUT: Next: CC(C#N)Cn1cc(C(N)=O)c(Nc2ccc(F)cc2)n1 (stereo not drawn)
OUTPUT: 2.72

INPUT: Note, next up: N#CC[C@@H](C1CCN(C(=O)OCC(F)(F)F)CC1)n1cc(C(N)=O)c(Nc2ccc(F)cc2)n1
OUTPUT: 2.63

INPUT: Follow-up item: N#CCC(C1CC1)n1cc(C(N)=O)c(Nc2ccc3ccncc3c2)n1 (stereo not drawn)
OUTPUT: 1.59

INPUT: Now the same for N#CCC(CC1CCOCC1)n1cc(C(N)=O)c(Nc2ccccc2)n1 (stereo not drawn)
OUTPUT: 3.17
